test system: A549; assay: Cytotoxicity against human A549 cells assessed as cell viability after 48 hrs by MTT assay; type: functional, cell-based; details: A549, 48 h
For each of the compounds below, state its pIC50.
Numbers only, as −log10 of the molar value.

Study these solved cases before continuing.
- C=C1CCC[C@]2(C)CCC(c3cn(CC(=O)Nc4ccccc4)nn3)=CC[C@@]12C: 4.14
- C=C1CCC[C@]2(C)CCC(c3cn(-c4cccc([N+](=O)[O-])c4)nn3)=CC[C@@]12C: 4.61
- C#CC1=CC[C@]2(CC1)C(=C)CC[C@H]2C(C)C: 3.99
- C=C1CCC[C@]2(C)CCC(c3cn(-c4ccc(I)cc4)nn3)=CC[C@@]12C: 3.86
- C=C1CCC[C@]2(C)CCC(c3cn(-c4ccc(C(C)=O)cc4)nn3)=CC[C@@]12C: 4.33

# input for lookup
Determine reported pIC50 for `C=C1CC[C@@H](C(C)C)[C@]12CC=C(c1cn(-c3cc(OC)c(OC)cc3OC)nn1)CC2` ; test system: A549.
4.69

---

test system: A549; assay: Cytotoxicity against human A549 cells assessed as cell viability after 48 hrs by MTT assay; type: functional, cell-based; details: A549, 48 h
pIC50: −log10 of the molar value.
If the reported pIC50 equals or exceeds 4, assign true. If not, assign false.

Sample answers from the record:
- CC1(C)CCC[C@]1(C)c1ccc(C=O)cc1: false
- C=C1CC[C@@H](C(C)C)[C@]12CC=C(c1cn(-c3ccc(OC)cc3)nn1)CC2: true
- C=C1CCC[C@]2(C)CCC(c3cn(-c4ccccc4C(C)=O)nn3)=CC[C@@]12C: true
- C=C1CCC[C@]2(C)CCC(c3cn(-c4ccc(Cl)cc4)nn3)=CC[C@@]12C: true
- C=C1CCC[C@]2(C)CCC(c3cn(-c4ccc(C)cc4)nn3)=CC[C@@]12C: true

API: above_or_equal(metric=pIC50, cutoff=4) for item `C=C1CCC[C@]2(C)CCC(c3cn(CC(=O)Nc4ccc(C)cc4)nn3)=CC[C@@]12C`
false

Could you please find out whether `C=C1CC[C@@H](C(C)C)[C@]12CC=C(c1cn(CC(=O)Nc3ccc(C)cc3)nn1)CC2` has pIC50 that meets 4 or exceeds it?
true

Quick check: does `CC1(C)CCCC2=CC=C(C=O)CC[C@]21C` have pIC50 greater than or equal to 4?
false

Hi team, for `C#CC1=CC[C@@]2(C)C(=C)CCC[C@]2(C)CC1` , is the recorded pIC50 at or above 4?
false

---

tested on: A549; assay: Cytotoxicity against human A549 cells assessed as cell viability after 48 hrs by MTT assay; type: functional, cell-based; conditions: A549, 48 h
Kindly state pIC50 for each of the entries shown.
Answers are plain numbers, as −log10 of the molar value.

Each molecule below has a reported value. Please supply its pIC50.
1. C=C1CC[C@@H](C(C)C)[C@]12CC=C(C=O)CC2
2. C=C1CCC[C@]2(C)CCC(c3cn(-c4cc(OC)c(OC)cc4OC)nn3)=CC[C@@]12C
3. C=C1CCC[C@]2(C)CCC(C=O)=CC[C@@]12C
4. C=C1CCC[C@]2(C)CCC(c3cn(-c4ccc(OC)cc4)nn3)=CC[C@@]12C
5. C=C1CCC[C@]2(C)CCC(c3cn(-c4cccc(OC)c4)nn3)=CC[C@@]12C

[3.77, 4.49, 3.84, 4.46, 4.95]
